Ref: patent US20240116877A1

pIC50, c-KIT kinase (uKIT) (Homo sapiens (Human)), per-entry values.
pIC50: −log10 of the molar value.

COCCOc1cc(F)c2c(Nc3ccc(NC(=O)CC(=O)N4CCC4(C)C)cc3)ncnc2c1
7.00 to 8.00
COCCOc1ccc2ncnc(Nc3ccc(NC(=O)NCCC(C)(C)OC)cc3)c2c1F
7.00 to 8.00
COCCOc1cc(F)c2c(Nc3ccc(NC(=O)NC4CCOCC4)cc3)ncnc2c1
7.00 to 8.00
COCCOc1cc(F)c2c(Nc3ccc(NC(=O)NCCC(C)(C)F)cc3F)ncnc2c1
≥ 8.00
COCCOc1cc(F)c2c(Nc3ccc(NC(=O)C(=O)NC(C)(C)C)cc3)ncnc2c1
< 6.00

Kindly state the measured pIC50 obtained for COCCOc1cc(F)c2c(Nc3ccc(NC(=O)CC(=O)N4CCC(C(F)(F)F)C4)cc3)ncnc2c1 (centres unmarked) with c-KIT kinase (uKIT) (Homo sapiens (Human)).
Sequence (P10721 other isoform, or with tags, fused parts or gaps): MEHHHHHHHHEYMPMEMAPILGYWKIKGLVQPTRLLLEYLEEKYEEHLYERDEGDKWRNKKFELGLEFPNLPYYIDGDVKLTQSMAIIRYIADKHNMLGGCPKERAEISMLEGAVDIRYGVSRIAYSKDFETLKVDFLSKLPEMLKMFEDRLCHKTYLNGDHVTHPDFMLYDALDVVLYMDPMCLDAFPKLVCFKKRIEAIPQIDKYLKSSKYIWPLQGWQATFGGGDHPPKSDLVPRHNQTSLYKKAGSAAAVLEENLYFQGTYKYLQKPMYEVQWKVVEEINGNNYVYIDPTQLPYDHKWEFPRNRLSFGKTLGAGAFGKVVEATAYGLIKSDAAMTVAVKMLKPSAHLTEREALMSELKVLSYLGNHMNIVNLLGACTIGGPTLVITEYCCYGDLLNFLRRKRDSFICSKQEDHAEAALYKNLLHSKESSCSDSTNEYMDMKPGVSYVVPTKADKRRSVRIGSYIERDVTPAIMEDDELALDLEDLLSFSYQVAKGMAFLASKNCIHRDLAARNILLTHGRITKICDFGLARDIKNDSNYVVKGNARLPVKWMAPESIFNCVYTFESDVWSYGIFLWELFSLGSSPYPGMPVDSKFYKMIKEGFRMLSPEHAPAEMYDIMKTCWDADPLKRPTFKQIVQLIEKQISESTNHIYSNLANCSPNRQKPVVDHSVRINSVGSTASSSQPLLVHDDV
7.00 to 8.00

Value wanted: pIC50 (c-KIT kinase (uKIT) (Homo sapiens (Human))) of entry CN(C)C(=O)COc1cc(F)c2c(Nc3ccc(NC(=O)NCCC(C)(C)F)cc3)ncnc2c1
7.00 to 8.00

Hi! What's the reported pIC50 for COCCOc1cc(F)c2c(Nc3ccc(NC(=O)CC(=O)N4CCC[C@H]4C)cc3)ncnc2c1 on c-KIT kinase (uKIT) (Homo sapiens (Human))?
7.00 to 8.00

----------
Tested on: Ba/F3 KIT mutant cells
method: Ba/F3 mutant KIT Cell Proliferation Assays (resazurin)
Format: cell-based
condition: Mus musculus, BaF3; Ba/F3 KIT exon11del-V654A mutant cell proliferation; read-out: exon11del-V654A IC50
pIC50: −log10 of the molar value.
As shown below, each of these compounds has a reported pIC50 value.

Some compounds with recorded pIC50:
COCCOc1cc(F)c2c(Nc3ccc(NC(=O)CC(=O)NCC4CCCCC4)cc3)ncnc2c1
7.00 to 8.00
CC(C)(F)CCNC(=O)Nc1ccc(Nc2ncnc3cc(OCCCN4CCCC4)cc(F)c23)cc1
7.00 to 8.00
COCCOc1cc(F)c2c(Nc3ccc(NC(=O)CCCC(C)(C)C)cc3)ncnc2c1
≥ 8.00

What is its pIC50 for Ba/F3 KIT mutant cells? Entry: COCCOc1cc(F)c2c(Nc3ccc(NC(=O)CC(=O)NCCC(C)(C)C)cc3)ncnc2c1
≥ 8.00

Form field - read-out: pIC50; system: Ba/F3 KIT mutant cells; submitted item: COCCOc1cc(F)c2c(Nc3ccc(NC(=O)CC(=O)NC4CCC4(C)C)cc3)ncnc2c1 (centres unmarked)
7.00 to 8.00

Please provide the recorded pIC50 for CC(C)(F)CCNC(=O)Nc1ccc(Nc2ncnc3cc(OC[C@H]4CCOC4)cc(F)c23)cc1 , tested on Ba/F3 KIT mutant cells.
7.00 to 8.00

Kindly state the measured pIC50 obtained for COc1cc2ncnc(Nc3ccc(NC(=O)NCCC(C)(C)OC)cc3)c2cc1OC with Ba/F3 KIT mutant cells.
< 6.00

Lookup: pIC50 / Ba/F3 KIT mutant cells / COCCOc1cc(F)c2c(Nc3ccc(NC(=O)CC4CCC(F)(F)CC4)cc3)ncnc2c1
7.00 to 8.00

----------
Tested on: Ba/F3 KIT mutant cells
method: Ba/F3 mutant KIT Cell Proliferation Assays (resazurin)
Type: cell-based
condition: Mus musculus, BaF3; Ba/F3 KIT exon11del-V654A mutant cell proliferation; read-out: exon11del-V654A IC50
pIC50: −log10 of the molar value.
Measured pIC50, listed per entry for reference.

# count of solved cases: 5
COCCOc1cc(F)c2c(Nc3ccc(NC(=O)COCC4CCCC4)cc3)ncnc2c1
7.00 to 8.00
COCCOc1cc(F)c2c(Nc3ccc(NC(=O)NCCC(C)(C)F)nc3)ncnc2c1
< 6.00
COCCOc1cc(F)c2c(Nc3ccc(NC(=O)NCCC(C)(C)OC)cc3)ncnc2c1
≥ 8.00
COCCOc1cc(F)c2c(Nc3ccc(NC(=O)CCN4CCCC4=O)cc3)ncnc2c1
< 6.00
COCCOc1cc(F)c2c(Nc3ccc(NC(=O)C(C)NC(=O)CC(C)C)cc3)ncnc2c1 (centres unmarked)
7.00 to 8.00

What measured pIC50 goes with COCCOc1cc(F)c2c(Nc3ccc(NC(=O)NC(=O)CC4(C(F)(F)F)COC4)cc3)ncnc2c1 ?
7.00 to 8.00

Dear colleague, I am looking for the recorded pIC50 of the following compound: COCCOc1cc(F)c2c(Nc3ccc(NC(=O)CC(=O)NC4CCCC4)cc3)ncnc2c1
≥ 8.00

What value of pIC50 has been reported for the following compound? COCCOc1cc(F)c2c(Nc3ccc(NC(=O)OCCC(C)(C)F)cc3)ncnc2c1
7.00 to 8.00
